Task for the reader: assign each of the following compounds its reported IC50.
- Tested on: Influenza A virus
- MEASUREMENT PROTOCOL: Antiviral activity against influenza A (A/Washington/10/2008 (H1N1)) virus after 30 mins by NA-star substrate based chemiluminescent assay
- Type: functional, organism-based
- EXPERIMENTAL CONTEXT: 0.5 h
Use nM as the unit, but write only the number.

Can you look up the measured IC50 of `C/C=C\[C@@H]1C[C@H](C(=O)O)N[C@H]1[C@@H](NC(C)=O)[C@](C)(CCC)OC` for me?
0.16

Can you look up the measured IC50 of CCC(CC)[C@H](NC(C)=O)[C@@H]1[C@H](O)[C@@H](C(=O)O)C[C@H]1NC(=N)N [PERAMIVIR ANHYDROUS] for me?
0.11

Can you look up the measured IC50 of CO[C@@H]([C@@H]1OC(C(=O)O)=C[C@H](NC(=N)N)[C@H]1NC(C)=O)[C@H](O)CO [LANINAMIVIR] for me?
0.14
